target.of.assay: LINE1 reverse transcriptase (Homo sapiens, UniProt O00370)
Construct: expressed in transfected cells; host or cells: HeLa Tet-On 3G (Takara, cat no 631183)
Sequence (O00370 whole entry, looked up): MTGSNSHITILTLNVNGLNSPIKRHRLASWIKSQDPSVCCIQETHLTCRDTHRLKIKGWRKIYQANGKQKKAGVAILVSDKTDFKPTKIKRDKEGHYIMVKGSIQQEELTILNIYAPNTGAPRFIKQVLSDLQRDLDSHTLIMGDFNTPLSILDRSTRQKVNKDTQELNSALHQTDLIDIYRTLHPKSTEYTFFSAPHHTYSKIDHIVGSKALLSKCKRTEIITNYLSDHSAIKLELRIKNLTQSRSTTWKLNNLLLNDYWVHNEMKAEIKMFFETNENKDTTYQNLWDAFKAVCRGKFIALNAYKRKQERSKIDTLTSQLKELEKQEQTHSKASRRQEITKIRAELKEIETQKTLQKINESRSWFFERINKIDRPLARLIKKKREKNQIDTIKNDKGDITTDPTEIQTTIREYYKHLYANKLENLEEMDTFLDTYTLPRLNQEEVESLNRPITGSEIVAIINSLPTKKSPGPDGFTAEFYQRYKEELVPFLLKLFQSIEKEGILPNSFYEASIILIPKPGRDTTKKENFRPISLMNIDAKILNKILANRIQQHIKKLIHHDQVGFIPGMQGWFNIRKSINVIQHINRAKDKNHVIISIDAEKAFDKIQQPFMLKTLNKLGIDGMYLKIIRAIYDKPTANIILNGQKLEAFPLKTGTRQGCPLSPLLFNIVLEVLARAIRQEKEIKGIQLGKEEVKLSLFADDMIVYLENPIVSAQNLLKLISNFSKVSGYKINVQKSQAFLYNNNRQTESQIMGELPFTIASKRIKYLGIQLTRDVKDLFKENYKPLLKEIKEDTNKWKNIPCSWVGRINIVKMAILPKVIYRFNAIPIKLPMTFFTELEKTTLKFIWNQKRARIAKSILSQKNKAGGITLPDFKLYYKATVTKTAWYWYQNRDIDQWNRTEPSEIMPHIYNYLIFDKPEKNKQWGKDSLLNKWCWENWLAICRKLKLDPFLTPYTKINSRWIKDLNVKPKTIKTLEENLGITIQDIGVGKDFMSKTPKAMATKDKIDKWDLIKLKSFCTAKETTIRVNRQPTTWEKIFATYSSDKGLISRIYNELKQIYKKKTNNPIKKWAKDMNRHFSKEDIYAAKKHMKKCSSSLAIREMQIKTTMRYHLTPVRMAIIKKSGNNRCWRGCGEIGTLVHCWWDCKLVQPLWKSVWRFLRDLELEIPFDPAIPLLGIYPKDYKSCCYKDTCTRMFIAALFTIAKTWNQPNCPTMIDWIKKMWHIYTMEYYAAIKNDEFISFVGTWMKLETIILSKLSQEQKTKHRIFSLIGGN
test.protocol: Stable artificial-intron Cis LINE1 reporter assay (HeLa Tet-On 3G, Firefly luciferase)
Format: cell-based
study.conditions: HeLa L1 artificial-intron reporter cells, doxycycline 500 ng/mL, 72 h, numeric bounds
pIC50: −log10 of the molar value.
quantity.name: pIC50

Specify measured pIC50 for `CO[C@H]1C[C@H](n2ccc(N)nc2=O)O[C@@]1(CO)CCl` . < 4.52

Specify measured pIC50 for `Nc1ncnn2c([C@H]3C[C@H](O)[C@](CO)(CF)O3)ccc12` . < 4.52

Specify measured pIC50 for `O=c1[nH]c(=O)n([C@@H]2O[C@@](CO)(CCl)[C@@H](O)[C@@H]2F)cc1F` . < 4.52

Specify measured pIC50 for `NC[C@]1(CO)O[C@@H](n2cc(F)c(N)nc2=O)[C@@H](F)[C@@H]1O` . < 4.52

Specify measured pIC50 for `N#C[C@]1(CO)O[C@@H](n2cc(F)c(N)nc2=O)[C@@H](F)[C@@H]1O` . < 4.52
